Test system: Staphylococcus aureus ATCC 10537
assay_summary: Antibacterial activity MIC, two-fold agar dilution
Format: cell-based
stated_conditions: ATCC10537; Staphylococcus aureus ATCC 10537; Muller-Hinton agar, 37° C., 20 hours; read-out: Antibacterial Activity MIC
Description: These MIC values were taken by employing a two-fold dilution method: that is, two-fold serial dilutions of each of the test compounds were made and dispersed in a Muller-Hinton agar medium; 2 μl of the standard test strain which had the 10^7 CFU(Colony Forming Unit) per ml was inoculated on the medium; and these were incubated at 37° C. for 20 hours. The results of the MIC tests are shown Table 1.
Measured MIC accompanies every entry in the list below.
Quick reminder: number only, in µg/mL, skip the unit.

Examples with answers:
• CC[n+]1c(N)nc(N)nc1SCC1=C(C(=O)[O-])N2C(=O)C(NC(=O)/C(=N\OC(C)(C)C(=O)O)c3csc(N)n3)[C@H]2SC1 (stereo partly drawn) = 2
• CC[n+]1c(N)cc(SCC2=C(C(=O)[O-])N3C(=O)[C@@H](NC(=O)/C(=N\OC)c4csc(N)n4)[C@H]3SC2)nc1N = 0.5
• CO/N=C(\C(=O)N[C@@H]1C(=O)N2C(C(=O)O)=C(COC(C)=O)CS[C@H]12)c1csc(N)n1 [Cefotaxime, reference compound] = 1

Please give the measured MIC for this compound: CC(O/N=C(\C(=O)N[C@@H]1C(=O)N2C(C(=O)[O-])=C(CSc3cc(N)nc(N)[n+]3C)CS[C@H]12)c1csc(N)n1)C(=O)O (stereo partly drawn) 4

Also need C[n+]1c(N)nc(N)nc1SCC1=C(C(=O)[O-])N2C(=O)C(NC(=O)/C(=N\OC(C)(C)C(=O)O)c3csc(N)n3)[C@H]2SC1 (stereo partly drawn) , thanks. 2

Also need CC[n+]1c(N)cc(SCC2=C(C(=O)[O-])N3C(=O)[C@@H](NC(=O)/C(=N\OC(C)(C)C(=O)O)c4csc(N)n4)[C@H]3SC2)nc1N , thanks. 4

====

Tested on: Proteus mirabilis ATCC 25933
assay_summary: Antibacterial activity MIC, two-fold agar dilution
Format: cell-based
stated_conditions: ATCC25933; Proteus mirabilis ATCC 25933; Muller-Hinton agar, 37° C., 20 hours; read-out: Antibacterial Activity MIC
readout_kind: MIC
Report the figure along with its unit, number first.

Examples with answers:
- CCO/N=C(\C(=O)N[C@@H]1C(=O)N2C(C(=O)[O-])=C(CSc3cc(N)nc(N)[n+]3CC)CS[C@H]12)c1nsc(N)n1: 0.016 µg/mL
- C#CCO/N=C(\C(=O)N[C@@H]1C(=O)N2C(C(=O)[O-])=C(CSc3cc(N)[n+](CC)c(N)n3)CS[C@H]12)c1csc(N)n1: 0.5 µg/mL
- CO/N=C(\C(=O)N[C@@H]1C(=O)N2C(C(=O)O)=C(COC(C)=O)CS[C@H]12)c1csc(N)n1 [Cefotaxime, reference compound]: 0.031 µg/mL
- C[n+]1c(N)cc(SCC2=C(C(=O)[O-])N3C(=O)[C@@H](NC(=O)/C(=N\OC(C)(C)C(=O)O)c4csc(N)n4)[C@H]3SC2)nc1N: 0.13 µg/mL

Proteus mirabilis ATCC 25933 / MIC / CC[n+]1c(SCC2=C(C(=O)[O-])N3C(=O)[C@@H](NC(=O)/C(=N\OC(C)C(=O)O)c4csc(N)n4)[C@H]3SC2)cc(N)nc1N (stereo partly drawn) : value? 0.31 µg/mL

Also need CCO/N=C(\C(=O)N[C@@H]1C(=O)N2C(C(=O)[O-])=C(CSc3cc(N)[n+](C)c(N)n3)CS[C@H]12)c1nsc(N)n1 , thanks. 0.25 µg/mL
